The origin of these recorded values is patent US8962631B2.

# System tested: full-length ATR (Homo sapiens)
# Construct: Assays were carried out at 25° C. in the presence of 5 nM full-length ATR
# Procedure summary: ATR Inhibition Assay (radioactive-phosphate incorporation)
# Condition: Ki(app); 10 μM ATP, 800 μM target peptide, 5 nM full-length ATR, 25° C.
pKi: −log10 of the molar value.
List of pKi values.

molecule="Cc1ccc2nc(-c3nc(C(=O)N4CCOCC4)cnc3N)[nH]c2c1 [II-53]" value_type=pKi result_value="5.10 to 6.00"
molecule="Cc1ccc2nc(-c3nc(Oc4ccc(C(=O)O)cc4)cnc3N)[nH]c2c1 [II-26]" value_type=pKi result_value="≥ 6.30"
molecule="CC(=O)Nc1cccc(Oc2cnc(N)c(-c3nc4ccccc4[nH]3)n2)c1 [II-9]" value_type=pKi result_value="5.10 to 6.00"
molecule="C#CCNC(=O)c1cnc(N)c(-c2nc3ccc(C)cc3[nH]2)n1 [II-54]" value_type=pKi result_value="≥ 6.30"
molecule="Cc1ccc2nc(-c3nc(C(=O)NCC4CCCO4)cnc3N)[nH]c2c1 (centres unmarked) [II-52]" value_type=pKi result_value="≥ 6.30"

Prompt: Value lookup for pKi; key = Nc1ncc(Oc2cccnc2)nc1-c1nc2ccccc2[nH]1 [II-12]
Response: 5.10 to 6.00

Prompt: Value lookup for pKi; key = CC(=O)NCCOc1cnc(N)c(-c2nc3ccc(C)cc3[nH]2)n1 [II-34]
Response: 5.10 to 6.00

----------
List of pKi values.
# System tested: full-length ATR (Homo sapiens, UniProt Q13535)
# Construct: Assays were carried out at 25° C. in the presence of 5 nM full-length ATR
# Sequence (Q13535 whole entry): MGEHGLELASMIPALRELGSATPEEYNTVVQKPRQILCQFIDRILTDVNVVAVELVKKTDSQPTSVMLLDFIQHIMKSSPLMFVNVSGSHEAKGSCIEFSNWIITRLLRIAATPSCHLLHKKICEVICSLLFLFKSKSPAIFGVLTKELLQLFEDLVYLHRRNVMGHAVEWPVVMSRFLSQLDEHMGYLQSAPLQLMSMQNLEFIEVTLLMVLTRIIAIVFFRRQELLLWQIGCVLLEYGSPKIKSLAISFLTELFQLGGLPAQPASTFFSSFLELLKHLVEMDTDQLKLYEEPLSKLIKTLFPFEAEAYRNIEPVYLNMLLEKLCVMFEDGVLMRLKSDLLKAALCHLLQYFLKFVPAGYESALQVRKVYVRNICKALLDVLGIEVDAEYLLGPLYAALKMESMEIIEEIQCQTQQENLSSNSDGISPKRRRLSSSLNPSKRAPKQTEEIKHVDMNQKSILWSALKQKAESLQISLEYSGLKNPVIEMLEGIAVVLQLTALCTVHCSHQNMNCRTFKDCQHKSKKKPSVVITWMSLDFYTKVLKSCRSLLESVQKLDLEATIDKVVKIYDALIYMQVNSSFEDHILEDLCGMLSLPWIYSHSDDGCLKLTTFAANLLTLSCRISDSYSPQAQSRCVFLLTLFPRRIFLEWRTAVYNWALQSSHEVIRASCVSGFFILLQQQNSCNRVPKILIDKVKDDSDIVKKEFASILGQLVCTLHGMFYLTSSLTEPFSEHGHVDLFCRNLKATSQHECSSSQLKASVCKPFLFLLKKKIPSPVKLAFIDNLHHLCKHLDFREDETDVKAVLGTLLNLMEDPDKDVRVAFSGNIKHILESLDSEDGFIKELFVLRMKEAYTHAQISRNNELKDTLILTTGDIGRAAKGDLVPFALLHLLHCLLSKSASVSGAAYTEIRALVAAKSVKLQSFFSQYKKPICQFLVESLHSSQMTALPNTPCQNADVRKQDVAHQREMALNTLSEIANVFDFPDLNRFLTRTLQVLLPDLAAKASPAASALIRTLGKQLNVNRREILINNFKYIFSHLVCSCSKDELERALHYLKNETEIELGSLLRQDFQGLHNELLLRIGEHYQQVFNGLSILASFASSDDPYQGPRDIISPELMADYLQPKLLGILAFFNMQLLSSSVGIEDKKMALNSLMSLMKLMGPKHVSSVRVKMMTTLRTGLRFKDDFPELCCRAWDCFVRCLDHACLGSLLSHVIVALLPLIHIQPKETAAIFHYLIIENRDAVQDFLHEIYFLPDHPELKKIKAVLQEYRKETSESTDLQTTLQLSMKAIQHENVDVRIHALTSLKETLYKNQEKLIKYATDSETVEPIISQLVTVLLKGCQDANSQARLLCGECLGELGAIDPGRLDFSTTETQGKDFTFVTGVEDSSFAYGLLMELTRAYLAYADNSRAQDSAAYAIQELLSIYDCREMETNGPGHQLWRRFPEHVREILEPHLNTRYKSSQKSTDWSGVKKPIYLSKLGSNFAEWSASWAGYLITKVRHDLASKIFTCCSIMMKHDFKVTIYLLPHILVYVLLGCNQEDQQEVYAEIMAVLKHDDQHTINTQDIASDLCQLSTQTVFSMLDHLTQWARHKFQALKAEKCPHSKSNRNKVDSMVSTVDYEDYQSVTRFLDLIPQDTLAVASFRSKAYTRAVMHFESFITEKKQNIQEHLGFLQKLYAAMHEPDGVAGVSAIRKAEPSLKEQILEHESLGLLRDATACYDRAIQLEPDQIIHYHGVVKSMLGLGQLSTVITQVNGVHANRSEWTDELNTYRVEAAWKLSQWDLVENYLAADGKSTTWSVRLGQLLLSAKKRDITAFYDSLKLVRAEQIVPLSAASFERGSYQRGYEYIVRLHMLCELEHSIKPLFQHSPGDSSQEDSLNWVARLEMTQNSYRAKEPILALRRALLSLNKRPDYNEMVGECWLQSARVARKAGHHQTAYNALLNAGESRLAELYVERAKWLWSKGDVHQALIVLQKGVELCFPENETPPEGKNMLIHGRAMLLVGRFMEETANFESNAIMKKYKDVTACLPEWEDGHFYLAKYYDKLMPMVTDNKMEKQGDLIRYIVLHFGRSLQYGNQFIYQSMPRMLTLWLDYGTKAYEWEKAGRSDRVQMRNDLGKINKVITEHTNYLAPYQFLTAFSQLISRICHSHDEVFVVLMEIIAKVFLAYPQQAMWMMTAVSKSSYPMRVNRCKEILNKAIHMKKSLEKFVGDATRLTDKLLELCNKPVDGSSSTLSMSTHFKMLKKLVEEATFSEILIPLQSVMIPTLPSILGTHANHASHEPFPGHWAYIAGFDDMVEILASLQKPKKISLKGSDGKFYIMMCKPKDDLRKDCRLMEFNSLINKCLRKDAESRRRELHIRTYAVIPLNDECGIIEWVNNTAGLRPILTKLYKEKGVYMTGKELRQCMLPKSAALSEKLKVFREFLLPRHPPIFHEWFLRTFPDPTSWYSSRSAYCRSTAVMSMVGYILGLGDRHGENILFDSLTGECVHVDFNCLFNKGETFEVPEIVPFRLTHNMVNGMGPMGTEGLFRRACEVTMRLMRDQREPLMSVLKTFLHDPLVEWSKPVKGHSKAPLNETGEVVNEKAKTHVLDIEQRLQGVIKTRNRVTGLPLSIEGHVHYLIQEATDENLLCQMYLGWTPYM
# Procedure summary: ATR Inhibition Assay (radioactive-phosphate incorporation)
# Condition: Ki(app); 10 μM ATP, 800 μM target peptide, 5 nM full-length ATR, 25° C.
pKi: −log10 of the molar value.

# count of solved cases: 6
compound="Cc1ccc2nc(-c3nc(C(=O)NC(C)c4ccccc4)cnc3N)[nH]c2c1 (stereo in doubt)" result_value="5.10 to 6.00"
compound=COCC#Cc1cnc(N)c(-c2nc3ccc(C)cc3[nH]2)n1 result_value="6.00 to 6.30"
compound=CC(=O)NCC#Cc1cnc(N)c(-c2nc3ccc(C)cc3[nH]2)n1 result_value="≥ 6.30"
compound=Cc1ccc2nc(-c3nc(C(=O)NCCC(F)(F)F)cnc3N)[nH]c2c1 result_value="6.00 to 6.30"
compound=Cc1ccc2nc(-c3nc(C(=O)NCCc4ccccc4)cnc3N)[nH]c2c1 result_value="6.00 to 6.30"
compound=Cc1ccc2nc(-c3nc(C(=O)NCC(N)=O)cnc3N)[nH]c2c1 result_value="5.10 to 6.00"

Prompt: Value lookup for pKi; key = Cc1ccc2nc(-c3nc(C(=O)NCc4cccnc4)cnc3N)[nH]c2c1
Response: 6.00 to 6.30

Prompt: Value lookup for pKi; key = Nc1ncc(Oc2ccccc2)nc1-c1nc2ccccc2[nH]1
Response: 6.00 to 6.30

Prompt: Value lookup for pKi; key = Cc1ccc2nc(-c3nc(C#CCN4CCS(=O)(=O)CC4)cnc3N)[nH]c2c1
Response: ≥ 6.30

Prompt: Value lookup for pKi; key = N#Cc1cccc(Oc2cnc(N)c(-c3nc4ccccc4[nH]3)n2)c1
Response: ≥ 6.30

Prompt: Value lookup for pKi; key = COC/C=C/c1cnc(N)c(-c2nc3ccc(C)cc3[nH]2)n1
Response: 5.10 to 6.00

Prompt: Value lookup for pKi; key = COC(=O)c1cnc(N)c(-c2nc3ccc(C)cc3[nH]2)n1
Response: ≥ 6.30

Prompt: Value lookup for pKi; key = Cc1ccc2nc(-c3nc(C(=O)NCC(=O)N(C)C)cnc3N)[nH]c2c1
Response: 5.10 to 6.00

Prompt: Value lookup for pKi; key = Cc1ccc2nc(-c3nc(C#CCNC(N)=O)cnc3N)[nH]c2c1
Response: 5.10 to 6.00

Prompt: Value lookup for pKi; key = Cc1ccc2nc(-c3nc(Oc4cccnc4)cnc3N)[nH]c2c1
Response: 6.00 to 6.30

Prompt: Value lookup for pKi; key = COc1ccccc1NC(=O)c1nc(Oc2ccccc2)cnc1N
Response: ≥ 6.30

Prompt: Value lookup for pKi; key = Cc1ccc2nc(-c3nc(C(=O)N4CCC4)cnc3N)[nH]c2c1
Response: ≥ 6.30

Prompt: Value lookup for pKi; key = COC(=O)CNC(=O)c1cnc(N)c(-c2nc3ccc(C)cc3[nH]2)n1
Response: ≥ 6.30

Prompt: Value lookup for pKi; key = COc1cccc(Oc2cnc(N)c(-c3nc4ccccc4[nH]3)n2)c1
Response: 6.00 to 6.30

----------
# System tested: full-length ATR (Homo sapiens)
# Construct: Assays were carried out at 25° C. in the presence of 5 nM full-length ATR
# Procedure summary: ATR Inhibition Assay (radioactive-phosphate incorporation)
# Condition: Ki(app); 10 μM ATP, 800 μM target peptide, 5 nM full-length ATR, 25° C.
List of Ki values.

# count of solved cases: 10
compound=Cc1ccc2nc(-c3nc(C(=O)N(C)CC#N)cnc3N)[nH]c2c1 result_value="1000 to 8000 nM"
compound=Nc1ncc(Nc2ccncc2)nc1C(=O)Nc1ccccc1 result_value="≤ 500 nM"
compound=Cc1ccc2nc(-c3nc(C(=O)NC4CCC4)cnc3N)[nH]c2c1 result_value="1000 to 8000 nM"
compound=COc1ccccc1NC(=O)c1nc(Nc2ccccc2)cnc1N result_value="≤ 500 nM"
compound=Cc1ccc2nc(-c3nc(Oc4ccc(O)cc4)cnc3N)[nH]c2c1 result_value="1000 to 8000 nM"
compound=Nc1ncc(Oc2cccc(Cl)c2)nc1-c1nc2ccccc2[nH]1 result_value="500 to 1000 nM"
compound="Nc1ncc(O[C@@H]2CC[C@H](O)C2)nc1-c1nc2ccccc2[nH]1 (relative stereo)" result_value="1000 to 8000 nM"
compound=Cc1ccc2nc(-c3nc(C(=O)NCc4ccccc4)cnc3N)[nH]c2c1 result_value="≤ 500 nM"
compound=Cc1ccc2nc(-c3nc(Oc4ccccc4)cnc3N)[nH]c2c1 result_value="1000 to 8000 nM"
compound=Cc1ccc2nc(-c3nc(C(=O)NCc4ccc(F)cc4)cnc3N)[nH]c2c1 result_value="≤ 500 nM"

Prompt: Value lookup for Ki; key = C/C=C/c1cnc(N)c(-c2nc3ccc(C)cc3[nH]2)n1
Response: 500 to 1000 nM

Prompt: Value lookup for Ki; key = Cc1ccc2nc(-c3nc(C(=O)NCCC#N)cnc3N)[nH]c2c1
Response: ≤ 500 nM

Prompt: Value lookup for Ki; key = Cc1ccc2nc(-c3nc(C(=O)NCC(=O)C(C)(C)C)cnc3N)[nH]c2c1
Response: 1000 to 8000 nM

Prompt: Value lookup for Ki; key = Nc1ncc(O[C@@H]2CC[C@@H](O)C2)nc1-c1nc2ccccc2[nH]1 (relative stereo)
Response: 500 to 1000 nM

Prompt: Value lookup for Ki; key = Cc1ccc2nc(-c3nc(C(=O)NCC4CCCC4)cnc3N)[nH]c2c1
Response: ≤ 500 nM

Prompt: Value lookup for Ki; key = Cc1ccc2nc(-c3nc(C#CCO)cnc3N)[nH]c2c1
Response: 500 to 1000 nM
